These measurements were taken from ChEMBL document CHEMBL1208757.

Target: Nucleic Acid
Assay: Binding affinity to 22 mer c-MYC G-quadruplex assessed as effect on ligand-telomeric complex formation by […]
Type: nucleic-acid assay
Listing of entries alongside the reported Kd.
Answer shape: numeric part, then the unit.

structure: NCC1=C2CNC(=O)C3=CC(CN)=C(CNC(=O)c4cc(CN)c(o4)CNC(=O)C(=C1)O2)O3.O=C(O)C(F)(F)F.O=C(O)C(F)(F)F.O=C(O)C(F)(F)F
Kd: 1.2 µM

Okay, now this molecule:
Input line: What does the data say about its Kd? Entry: NCCC(=O)NCC1=C2CNC(=O)C3=CC(CNC(=O)CCN)=C(CNC(=O)c4cc(CNC(=O)CCN)c(o4)CNC(=O)C(=C1)O2)O3.O=C(O)C(F)(F)F.O=C(O)C(F)(F)F.O=C(O)C(F)(F)F
Output line: 2.1 µM
